- Subject Of Test: Melatonin receptor type 1A (Homo sapiens)
- Sequence (P48039 whole entry): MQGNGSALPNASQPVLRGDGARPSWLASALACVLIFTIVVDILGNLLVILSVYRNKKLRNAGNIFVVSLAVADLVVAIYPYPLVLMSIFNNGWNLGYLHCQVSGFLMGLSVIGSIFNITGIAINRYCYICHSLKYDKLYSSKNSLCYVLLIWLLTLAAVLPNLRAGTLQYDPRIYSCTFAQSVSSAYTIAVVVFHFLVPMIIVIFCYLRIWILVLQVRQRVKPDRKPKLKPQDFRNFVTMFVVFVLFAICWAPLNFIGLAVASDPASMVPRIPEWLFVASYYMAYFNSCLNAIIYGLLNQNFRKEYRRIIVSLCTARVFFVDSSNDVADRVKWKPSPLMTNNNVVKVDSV
- Assay Protocol: Intrinsic activity at human cloned MT1 receptor expressed in mouse NIH-3T3 cells assessed as stimulation of [35S]GTPgammaS binding relative to melatonin
- Type: functional, cell-based
- Condition Set: NIH3T3
With a cut-off of 0.5, any Intrinsic activity strictly below it is called met; any Intrinsic activity meeting it or above is called not met.

>>> df
                                smiles_repr  class_name
0  CC(=O)NCCN(C)c1cccc(OCCCCCOc2cccc(N(C)CCNC(C)=O)c2)c1         met
1  COc1cccc(N(CCNC(C)=O)C(=O)CCCCC(=O)N(CCNC(C)=O)c2cccc(OC)c2)c1     not met
2  COc1cccc(N(CCCCCCCCCCN(CCNC(C)=O)c2cccc(OC)c2)CCNC(C)=O)c1         met

# evaluate next
State whether 0.5 exceeds Intrinsic activity recorded for CC(=O)NCCN(C)c1cccc(OCCCCCCOc2cccc(N(C)CCNC(C)=O)c2)c1 .
met
